# ASSAYED TARGET: hERG ion channel (Homo sapiens, UniProt Q12809)
# Construct: Chinese Hamster Ovary cell lines stably expressing the full-length ion channel
# Sequence (Q12809 whole entry): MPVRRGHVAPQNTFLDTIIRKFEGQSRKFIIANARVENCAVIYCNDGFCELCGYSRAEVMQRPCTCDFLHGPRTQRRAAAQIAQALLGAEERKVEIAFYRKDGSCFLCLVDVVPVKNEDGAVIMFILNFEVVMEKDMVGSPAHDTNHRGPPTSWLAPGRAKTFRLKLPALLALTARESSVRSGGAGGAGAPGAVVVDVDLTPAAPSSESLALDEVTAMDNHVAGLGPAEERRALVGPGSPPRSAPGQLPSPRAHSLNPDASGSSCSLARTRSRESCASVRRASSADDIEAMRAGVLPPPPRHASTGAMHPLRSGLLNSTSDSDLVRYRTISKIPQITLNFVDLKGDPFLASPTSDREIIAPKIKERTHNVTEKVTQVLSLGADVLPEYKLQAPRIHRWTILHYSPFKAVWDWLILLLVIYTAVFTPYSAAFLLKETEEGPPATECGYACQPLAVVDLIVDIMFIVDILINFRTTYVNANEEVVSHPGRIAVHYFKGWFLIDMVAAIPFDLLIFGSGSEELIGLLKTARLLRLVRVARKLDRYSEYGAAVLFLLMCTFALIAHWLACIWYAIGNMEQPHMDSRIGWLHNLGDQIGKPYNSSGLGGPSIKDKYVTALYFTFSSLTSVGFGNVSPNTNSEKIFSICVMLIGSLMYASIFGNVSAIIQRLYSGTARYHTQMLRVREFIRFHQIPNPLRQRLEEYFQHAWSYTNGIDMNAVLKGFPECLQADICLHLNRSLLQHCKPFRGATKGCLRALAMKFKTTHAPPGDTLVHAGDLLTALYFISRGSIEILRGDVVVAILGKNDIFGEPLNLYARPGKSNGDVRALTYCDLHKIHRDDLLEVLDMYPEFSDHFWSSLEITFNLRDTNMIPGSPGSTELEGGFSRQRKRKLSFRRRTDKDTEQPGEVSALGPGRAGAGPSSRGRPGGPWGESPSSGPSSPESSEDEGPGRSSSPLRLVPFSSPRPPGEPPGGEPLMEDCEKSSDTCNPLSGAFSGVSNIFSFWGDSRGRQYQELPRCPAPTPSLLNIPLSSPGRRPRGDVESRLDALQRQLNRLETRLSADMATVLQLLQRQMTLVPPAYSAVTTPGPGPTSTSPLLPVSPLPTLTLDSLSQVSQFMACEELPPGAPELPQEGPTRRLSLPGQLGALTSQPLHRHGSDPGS
# ASSAY PROCEDURE: hERG ion channel inhibition (Patchliner automated patch-clamp, CHO cells)
# REPORTED CONDITIONS: whole-cell, room temperature, 6-point curve up to 100 µM
ASSAY ENDPOINT: log10 of IC50 (log10 of the value in nM)
In plain terms, each number is the log10 of measured IC50 in nM.

Item COc1cc2cc(c1OC)OCCCC(OC(=O)c1ccccn1)CCN1CCCN(CCCOC2=O)CC1 (centres unmarked) [Compound 52] with hERG ion channel (Homo sapiens, UniProt Q12809) - log10 of IC50? 3.43

Same lookup for COc1cc(C(=O)OC2CCCOc3cc(cc(OC)c3OC)C(=O)OCCCN3CCN(CC2)CC(F)(F)C3)cc(OC)c1OC (centres unmarked) [Compound 4] , please. 4.86

Same lookup for COc1cc(C(=O)O[C@H]2CCCOc3cc(cc(OC)c3OC)C(=O)OCCCN3CCCN(CC2)CC3)cc(OC)c1OC [Compound 2] , please. 3.40

Same lookup for COc1cc(C(=O)OCCCN2CCCN(CCCOC(=O)c3cc(OC)c(OC)c(OC)c3)CC2)cc(OC)c1OC [Dilazep, dilazep, reference compound] , please. 2.95

Same lookup for COc1cc(C(=O)O[C@@H]2CCCOc3cc(cc(OC)c3OC)C(=O)NCCCN3CCCN(CC2)CC3)cc(OC)c1OC [Compound 10] , please. 3.53
